Ki overview
tested on: UniProtKB Q13126
Sequence (Q13126 whole entry): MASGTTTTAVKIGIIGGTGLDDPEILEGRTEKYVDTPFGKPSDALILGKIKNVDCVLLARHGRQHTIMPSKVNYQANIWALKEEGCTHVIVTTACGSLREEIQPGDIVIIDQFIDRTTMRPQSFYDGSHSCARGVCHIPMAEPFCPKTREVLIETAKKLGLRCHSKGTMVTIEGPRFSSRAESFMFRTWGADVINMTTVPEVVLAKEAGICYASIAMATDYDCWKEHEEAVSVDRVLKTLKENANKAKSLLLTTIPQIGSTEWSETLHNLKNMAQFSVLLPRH
experiment description: Inhibition of human MTAP as initial dissociation constant
Give your result in nM as a bare value.

molecule | readout value
NC1NC=Nc2c(CN3CC(O)C(CSc4ccccc4)C3)c[nH]c21 (stereo not given) | 1.5
NC1NC=Nc2c(CN3CC(O)C(CSC4CCCCC4)C3)c[nH]c21 (stereo not given) | 0.76
CC(C)SCC1CN(Cc2c[nH]c3c2NC=NC3N)CC1O (stereo not given) | 0.9
NC1N=CNc2c(CN3CC(O)C(CSc4ccncc4)C3)c[nH]c21 (stereo not given) | 2
NC1N=CNc2c(CN3CC(O)C(COCc4ccccc4)C3)c[nH]c21 (stereo not given) | 85

Please report Ki for the following molecule: COCC1CN(Cc2c[nH]c3c2N=CNC3N)CC1O (stereo not given)
14
